Quick reference: IC50 of the listed items.
molecular target: EeAChE (Electrophorus electricus); construct: purchased Sigma–Aldrich; assay: biochemical; assay type: biochemical
Sequence (O42275 24-633): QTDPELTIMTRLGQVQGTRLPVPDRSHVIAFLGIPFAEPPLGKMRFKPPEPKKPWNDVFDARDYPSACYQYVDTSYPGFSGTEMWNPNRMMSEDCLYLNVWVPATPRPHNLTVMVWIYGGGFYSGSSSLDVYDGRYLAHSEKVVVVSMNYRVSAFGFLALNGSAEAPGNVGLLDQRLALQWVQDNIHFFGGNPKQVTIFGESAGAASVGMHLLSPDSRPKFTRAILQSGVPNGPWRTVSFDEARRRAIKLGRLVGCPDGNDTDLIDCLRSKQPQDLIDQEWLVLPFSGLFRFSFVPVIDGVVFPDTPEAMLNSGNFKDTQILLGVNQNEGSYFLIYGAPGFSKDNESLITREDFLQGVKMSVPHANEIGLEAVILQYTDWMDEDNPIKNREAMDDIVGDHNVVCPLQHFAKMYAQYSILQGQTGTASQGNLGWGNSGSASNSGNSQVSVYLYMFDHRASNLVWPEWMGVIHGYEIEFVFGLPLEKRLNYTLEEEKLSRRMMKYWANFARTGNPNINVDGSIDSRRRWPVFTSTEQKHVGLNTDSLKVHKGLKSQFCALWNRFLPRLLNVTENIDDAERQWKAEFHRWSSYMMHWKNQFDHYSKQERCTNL

O=C1c2ccccc2C(=O)N1CCCCCCCCCCN1CCc2ccccc2C1 > 50 µM
O=C1c2ccccc2C(=O)N1CCCCCN1CCOCC1 18.1 µM
O=C1c2ccccc2C(=O)N1CCCCCCCN1CCCC1 0.276 µM
CCN(CC)CCCCCCN1CCc2ccccc2C1 > 50 µM
CCN(CC)CCCCCCn1ccc2ccccc21 > 50 µM

INPUT: Would you mind telling me what IC50 value was observed for "CCN(CC)CCCCn1ccc2ccccc21" ?
OUTPUT: > 50 µM

INPUT: For "O=C1c2ccccc2C(=O)N1CCCCCCCCCCCCN1CCc2ccccc2C1" then?
OUTPUT: > 50 µM

INPUT: Also "O=C1c2ccccc2C(=O)N1CCCCN1CCc2ccccc2C1" ?
OUTPUT: 5.6 µM

INPUT: Please answer likewise for "O=C1c2ccccc2S(=O)(=O)N1CCCCCCNCc1cccc(Cl)c1"
OUTPUT: 0.596 µM

INPUT: Next compound: "CCN(CC)CCCCCn1ccc2ccccc21"
OUTPUT: > 50 µM
